Tested on: 3T3
Experiment: MTS cell proliferation/viability assay
Assay type: cell-based, murine
Settings: read-out: IC50 3T3, 72 h incubation, non-cancer fibroblasts
Task for the reader: assign each of the following molecules its reported IC50.

**Q:** Supply measured IC50 of COC1N(OC)c2ccccc2C12CN=C(Nc1ccc(C(F)(F)F)cc1)S2 (racemic) in your reply.
**A:** > 100 µM

**Q:** Supply measured IC50 of COC1N(OC)c2ccc(F)cc2C12CN=C(SC)S2 (racemic) in your reply.
**A:** > 100 µM

**Q:** Supply measured IC50 of CON1C(=O)C2(CN=C(Nc3ccc(C)cc3)S2)c2ccccc21 (racemic) in your reply.
**A:** > 100 µM

**Q:** Supply measured IC50 of CC(C)(C)OC(=O)N1c2ccccc2C2(CN=C(Nc3ccc(Cl)cc3)S2)C1N1CCCCC1 (racemic) in your reply.
**A:** > 100 µM

**Q:** Supply measured IC50 of CON1C(=O)C2(CN=C(Nc3ccc(Br)cc3)S2)c2ccccc21 (racemic) in your reply.
**A:** 61.1 µM

**Q:** Supply measured IC50 of CON1C(=O)C2(CN=C(Nc3ccc(C(F)(F)F)cc3)S2)c2ccccc21 (racemic) in your reply.
**A:** 34.9 µM

**Q:** Supply measured IC50 of "COn1cc(CNC(=O)SC)c2cc(F)ccc21" in your reply.
**A:** > 100 µM

**Q:** Supply measured IC50 of "CSC(=O)NCc1c[nH]c2ccc(F)cc12" in your reply.
**A:** > 100 µM

**Q:** Supply measured IC50 of CC(C)(C)OC(=O)N1c2ccccc2C2(CN=C(Nc3ccc(C(F)(F)F)cc3)S2)C1N1CCCCC1 (racemic) in your reply.
**A:** > 100 µM

The reported measurements were obtained from paper PMC5487498.
